The reported measurements were obtained from PubChem BioAssay AID1508600.

Give z-score for every item shown.
Experiment: Components of the Cytosolic LPS Sensing Pathway: Gene Identification via Genome-wide siRNA Screen;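 note: robust z of the log signal after scaling to non-targeting control siRNA wells of the plate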
Conditions: RAW264.7 macrophages, IL-1a HTRF, actives lie on both sides, screened at 100 nM (by protocol), cells primed 5 h with Pam3CSK4 first
The campaign covered roughly 53,000 sequences. About 3,700 (7%) were called active. This excerpt belongs to a sample that is enriched for actives.
Answers are plain numbers.

GGCCUUAGUAUUCUGCCUCTT against Nuak1 :: 0.395
GCUGCUCUGCUAUAAGUAUTT against Kptn :: -0.269
CCUGCUUGCCAACACCAUATT against Slc39a13 :: -2.2
GGAUCCCAGUUCUGGGUAATT against Dok1 :: -0.0628
GGUGGCUUUAGGGAACAUUTT against Dctn3 :: 0.369

Dear colleague, could you please provide z-score for the sequences listed below?
1. GCUAAAGAAAAGUGGAGACTT against Pbdc1
2. GCUGAUAACCUGAUCAACGTT against Nars
3. GGAUCUAUUCUCUCUGAUGTT against Prune2

[0.165, 0.0406, 1.03]
